Measured pKd, listed per entry.
study-system: T1, recombinant human 4R0N tau (human, UniProt P10636 2-758)
T1 construct: also called recombinant 4R0N human tau; P10636-6
T1 sequence (P10636 other isoform, or with tags, fused parts or gaps limits assumed): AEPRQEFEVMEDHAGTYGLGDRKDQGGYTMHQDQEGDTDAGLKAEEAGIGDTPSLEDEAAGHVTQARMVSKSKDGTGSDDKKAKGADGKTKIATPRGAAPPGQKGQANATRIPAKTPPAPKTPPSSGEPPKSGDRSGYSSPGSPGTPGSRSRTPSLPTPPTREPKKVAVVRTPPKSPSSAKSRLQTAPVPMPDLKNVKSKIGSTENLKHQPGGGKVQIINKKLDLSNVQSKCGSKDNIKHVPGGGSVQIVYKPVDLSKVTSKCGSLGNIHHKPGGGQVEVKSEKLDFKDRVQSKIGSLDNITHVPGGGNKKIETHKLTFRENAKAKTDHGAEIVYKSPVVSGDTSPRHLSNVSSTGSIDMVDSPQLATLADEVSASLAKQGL
assay-summary: SPR Biacore T200; antibody captured by anti-human Fc; tau as analyte; global 1:1 fit
pKd: −log10 of the molar value.
value-type: pKd

INSERT INTO measurements (binder, recorded_value) VALUES
  ('hu9F5VHv9/hu9F5VLv8_DIM13 (antibody, V domains shown) VH: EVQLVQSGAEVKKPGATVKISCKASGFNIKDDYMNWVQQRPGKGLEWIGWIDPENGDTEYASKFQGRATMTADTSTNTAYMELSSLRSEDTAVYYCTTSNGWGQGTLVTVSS VL: DIQMTQSPFSLPVTPGESASISCRSSKSLGHSNGITYLYWYGQKPGQSPQLLIYQGSNRASGVPNRFSSSGSGTDFTLKISRVEAEDVGVYYCAQNLELPLTFGQGTKLEIK', 9.58),
  ('hu9F5VHv9/hu9F5VLv8_DIM6 (antibody, V domains shown) VH: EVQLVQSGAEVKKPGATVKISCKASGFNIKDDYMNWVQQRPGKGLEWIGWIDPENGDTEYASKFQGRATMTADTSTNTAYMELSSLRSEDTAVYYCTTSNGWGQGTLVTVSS VL: DIQMTQSPFSLPVTPGESASISCRSSKSLDHSNGITYLYWYQQKPGQSPQLLIYQGSNRASGVPNRFSSSGSGTDFTLKISRVEAEDVGVYYCAQNIELPLTFGQGTKLEIK', 9.75),
  ('hu9F5VHv9/hu9F5VLv8_DIM28 (antibody, V domains shown) VH: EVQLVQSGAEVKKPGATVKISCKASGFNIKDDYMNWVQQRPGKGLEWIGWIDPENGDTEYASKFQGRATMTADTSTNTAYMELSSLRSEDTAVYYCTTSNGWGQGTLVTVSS VL: DIQMTQSPFSLPVTPGESASISCRSSKSLSHSNGITYLYWYLQKPGQSPQLLIYQGSNRASGVPNRFSSSGSGTDFTLKISRVEAEDVGVYYCAQNIELPLTFGQGTKLEIK', 10.16);
